Data provenance: ChEMBL document CHEMBL4390666

# target: Alpha-1A adrenergic receptor (Homo sapiens)
# Sequence (P35348 whole entry): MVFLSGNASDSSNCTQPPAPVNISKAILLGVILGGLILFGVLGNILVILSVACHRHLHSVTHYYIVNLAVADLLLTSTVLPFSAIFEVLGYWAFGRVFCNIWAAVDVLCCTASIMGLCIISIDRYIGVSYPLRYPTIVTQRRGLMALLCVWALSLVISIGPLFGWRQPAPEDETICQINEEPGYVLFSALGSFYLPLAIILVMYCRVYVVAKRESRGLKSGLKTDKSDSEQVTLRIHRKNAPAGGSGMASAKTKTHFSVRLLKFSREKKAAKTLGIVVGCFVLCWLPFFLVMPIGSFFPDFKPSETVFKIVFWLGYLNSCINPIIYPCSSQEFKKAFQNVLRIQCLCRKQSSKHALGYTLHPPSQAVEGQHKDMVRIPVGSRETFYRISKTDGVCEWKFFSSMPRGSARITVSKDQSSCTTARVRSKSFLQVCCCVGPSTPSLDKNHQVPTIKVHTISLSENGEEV
recordedEndpoint: Ki

Task: Given the compound COc1ccccc1N1CCN(CC2(c3ccccc3)COCCO2)CC1 (stereo not given) , what is its reported Ki?
Output: > 1000 nM

Task: # iterate: COc1ccccc1N1CCN(CC2COCC(c3ccccc3)(c3ccccc3)O2)CC1 (stereo not given)
Output: 2.63 nM

Task: Another compound to check: COc1cccc(OC)c1OCCNC[C@H]1OCCO[C@@H]1c1ccccc1 (relative stereo)
Output: > 1000 nM

Task: Do the same for c1ccc(OCCNCC2OCCOC2(c2ccccc2)c2ccccc2)cc1 (stereo not given) please
Output: > 1000 nM

Task: Item: c1ccc(OCCNC[C@H]2OCCO[C@H]2c2ccccc2)cc1 (relative stereo)
Output: > 1000 nM

----------
Reported pD2 values follow for various molecules
# target: 5-hydroxytryptamine receptor 1A (Homo sapiens) (UniProt P08908)
# methodSummary: Agonist activity at cloned human 5-HT1A receptor transfected in human HeLa cell membranes assessed as stimulation of [35S]GTPgammaS binding preincubated for 20 mins followed by [35S]GTPgammaS addition and measured after 30 mins by liquid scintillation counting
# Type: functional
Write the number on its own, no unit after it.

# count of solved cases: 3
# molecule, reportedValue
records = [
    ("COc1ccccc1N1CCN(CC2COCC(c3ccccc3)(c3ccccc3)O2)CC1 (centres undefined)", 7.01),
    ("c1ccc(OCCNCC2OCCOC2(c2ccccc2)c2ccccc2)cc1 (centres undefined)", 6.71),
    ("COc1ccccc1OCCNCC1COCC(c2ccccc2)(c2ccccc2)O1 (centres undefined)", 9.4),
]

Task: What value of pD2 has been reported for the following molecule? COc1ccccc1OCCNC[C@H]1OCCO[C@H]1c1ccccc1 (relative stereo)
Output: 7.13

----------
Below: a set of entries, each annotated with reported GI50 at 48 h.
# methodSummary: Growth inhibition of human fibroblast cells incubated for 48 hrs by SRB assay
# Assay type: cell-based
# conditionSet: human fibroblast cells
Supply the numeric figure in µM, leaving out any unit text.

# compound, GI50 at 48 h, µM
measured = [
    ("COc1ccccc1OCCNCC1COCC(c2ccccc2)(c2ccccc2)O1 (stereo not drawn)", 38.4),
]

Task: Value lookup for GI50 at 48 h; key = COc1ccccc1OCCNCC1OCCOC1(c1ccccc1)c1ccccc1 (stereo not drawn)
Output: 30.5

----------
# target: Alpha-1B adrenergic receptor (Homo sapiens, UniProt P35368)
# Sequence (P35368 whole entry): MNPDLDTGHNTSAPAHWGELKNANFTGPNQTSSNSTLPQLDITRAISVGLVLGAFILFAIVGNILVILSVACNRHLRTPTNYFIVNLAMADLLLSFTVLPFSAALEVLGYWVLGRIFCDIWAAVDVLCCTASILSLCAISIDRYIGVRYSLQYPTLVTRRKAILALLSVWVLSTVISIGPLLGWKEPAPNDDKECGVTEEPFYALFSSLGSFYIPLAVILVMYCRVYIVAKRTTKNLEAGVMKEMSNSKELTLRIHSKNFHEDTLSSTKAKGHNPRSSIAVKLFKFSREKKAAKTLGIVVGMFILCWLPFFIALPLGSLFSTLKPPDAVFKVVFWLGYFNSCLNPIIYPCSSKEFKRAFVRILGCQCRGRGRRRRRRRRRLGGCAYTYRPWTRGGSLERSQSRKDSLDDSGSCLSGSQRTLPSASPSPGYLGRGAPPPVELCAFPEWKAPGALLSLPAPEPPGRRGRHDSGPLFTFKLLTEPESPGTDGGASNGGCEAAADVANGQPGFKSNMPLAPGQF
recordedEndpoint: Ki

Task: # query: Ki | item COc1ccccc1OCCNCC1OCCOC1(c1ccccc1)c1ccccc1 (stereo not given) | system: Alpha-1B adrenergic receptor (Homo sapiens, UniProt P35368)
Output: 67.6 nM

----------
Below: a set of entries, each annotated with reported pKi.
# target: UniProt:P08908
# Sequence (P08908 whole entry): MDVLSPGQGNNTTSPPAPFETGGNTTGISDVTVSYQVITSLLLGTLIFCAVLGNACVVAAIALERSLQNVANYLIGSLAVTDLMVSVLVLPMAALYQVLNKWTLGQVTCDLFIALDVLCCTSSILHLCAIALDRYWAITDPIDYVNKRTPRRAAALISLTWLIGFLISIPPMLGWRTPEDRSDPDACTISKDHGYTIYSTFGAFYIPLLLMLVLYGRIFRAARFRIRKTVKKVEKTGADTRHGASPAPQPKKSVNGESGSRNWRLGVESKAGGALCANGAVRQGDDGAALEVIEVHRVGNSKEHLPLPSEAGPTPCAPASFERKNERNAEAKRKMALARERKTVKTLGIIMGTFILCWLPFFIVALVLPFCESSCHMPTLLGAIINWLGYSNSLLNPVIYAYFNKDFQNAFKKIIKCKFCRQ
A value of pKi is the negative decimal logarithm of a concentration given in moles per litre.

Task: // returns reported pKi for input c1ccc(OCCNC[C@H]2OCCO[C@@H]2c2ccccc2)cc1 (relative stereo)
Output: 7.26

----------
# target: Alpha-1A adrenergic receptor (Homo sapiens)
# Sequence (P35348 whole entry): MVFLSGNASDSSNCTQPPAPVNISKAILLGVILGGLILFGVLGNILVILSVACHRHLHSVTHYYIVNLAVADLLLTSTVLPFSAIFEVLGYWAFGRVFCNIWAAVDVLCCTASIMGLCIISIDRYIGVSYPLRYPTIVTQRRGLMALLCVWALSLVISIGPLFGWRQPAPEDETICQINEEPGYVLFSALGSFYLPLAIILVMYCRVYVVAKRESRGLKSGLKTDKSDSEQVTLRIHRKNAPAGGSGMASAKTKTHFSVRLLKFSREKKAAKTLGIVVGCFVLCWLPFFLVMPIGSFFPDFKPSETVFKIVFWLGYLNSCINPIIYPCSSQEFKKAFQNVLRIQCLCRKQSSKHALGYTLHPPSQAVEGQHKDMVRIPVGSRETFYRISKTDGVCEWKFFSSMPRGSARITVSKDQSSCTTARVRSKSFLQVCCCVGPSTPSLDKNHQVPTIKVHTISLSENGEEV
recordedEndpoint: Ki

Some entries whose results are on file:
# molecule, Ki
measured = [
    ("COc1cccc(OC)c1OCCNCC1(c2ccccc2)COCCO1 (stereo not drawn)", "> 1000 nM"),
    ("COc1ccccc1OCCNCC1OCCOC1(c1ccccc1)c1ccccc1 (stereo not drawn)", "> 1000 nM"),
]

Task: Need Ki of COc1ccccc1N1CCN(C[C@H]2OCCOC2(c2ccccc2)c2ccccc2)CC1 , thanks.
Output: 355 nM

----------
Catalogue of pKi values
# target: UniProt:P14416
# Sequence (P14416 whole entry): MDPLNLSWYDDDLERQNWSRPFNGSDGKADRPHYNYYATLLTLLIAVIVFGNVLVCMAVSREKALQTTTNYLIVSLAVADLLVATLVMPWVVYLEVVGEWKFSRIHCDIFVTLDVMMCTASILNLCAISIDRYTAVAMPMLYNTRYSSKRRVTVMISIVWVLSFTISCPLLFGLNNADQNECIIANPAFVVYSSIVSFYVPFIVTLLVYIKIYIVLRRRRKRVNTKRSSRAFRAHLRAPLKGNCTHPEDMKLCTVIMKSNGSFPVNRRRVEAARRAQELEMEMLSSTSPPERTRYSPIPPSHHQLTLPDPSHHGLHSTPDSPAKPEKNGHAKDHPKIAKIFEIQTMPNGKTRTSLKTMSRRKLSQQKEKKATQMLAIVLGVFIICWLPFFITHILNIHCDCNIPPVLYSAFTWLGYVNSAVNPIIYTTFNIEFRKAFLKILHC
# methodSummary: Displacement of [3H]N-methylspiperone from human dopamine D2 receptor expressed in HEK293 cell membranes incubated for 1 hr by liquid scintillation counting
Value format note: pKi is -log10 of concentration (mol/L); just state the number.

Worked examples follow.
# compound, pKi
rows = [
    ("COc1ccccc1OCCNCC1OCCOC1(c1ccccc1)c1ccccc1 (stereo not drawn)", 6.49),
    ("COc1ccccc1N1CCN(CC2COCC(c3ccccc3)(c3ccccc3)O2)CC1 (stereo not drawn)", 6.95),
]

Task: // lookup pKi for COc1ccccc1N1CCN(C[C@H]2OCCOC2(c2ccccc2)c2ccccc2)CC1
Output: 5.66

----------
Item-by-item account of pKi
# target: Alpha-1D adrenergic receptor (Homo sapiens)
# Sequence (P25100 whole entry): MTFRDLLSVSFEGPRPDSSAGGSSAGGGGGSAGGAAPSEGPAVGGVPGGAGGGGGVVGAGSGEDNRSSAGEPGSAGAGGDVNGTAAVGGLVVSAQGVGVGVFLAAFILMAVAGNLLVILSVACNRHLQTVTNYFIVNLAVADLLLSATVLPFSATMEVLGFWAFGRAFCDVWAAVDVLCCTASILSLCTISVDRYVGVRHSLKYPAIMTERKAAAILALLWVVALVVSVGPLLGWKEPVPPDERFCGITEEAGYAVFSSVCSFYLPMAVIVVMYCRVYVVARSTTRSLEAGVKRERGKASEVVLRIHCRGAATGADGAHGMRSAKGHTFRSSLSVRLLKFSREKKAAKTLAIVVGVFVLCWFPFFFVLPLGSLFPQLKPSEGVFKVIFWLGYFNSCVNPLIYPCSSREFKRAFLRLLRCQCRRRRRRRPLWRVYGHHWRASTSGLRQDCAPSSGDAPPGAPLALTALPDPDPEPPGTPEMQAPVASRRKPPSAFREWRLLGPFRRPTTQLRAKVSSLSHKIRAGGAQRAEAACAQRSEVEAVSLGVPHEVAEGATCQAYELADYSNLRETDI
In simple prose, pKi is minus the logarithm base ten of a concentration in moles per litre.

# molecule, reportedValue
records = [
    ("c1ccc(OCCNCC2OCCOC2(c2ccccc2)c2ccccc2)cc1 (stereo unspecified)", 6.50),
    ("COc1ccccc1N1CCN(C[C@H]2OCCOC2(c2ccccc2)c2ccccc2)CC1", 7.05),
    ("COc1ccccc1N1CCN(CC2COCC(c3ccccc3)(c3ccccc3)O2)CC1 (stereo unspecified)", 8.76),
]

Task: Hello, I am looking for reported pKi with Alpha-1D adrenergic receptor (Homo sapiens) for COc1ccccc1N1CCN(C[C@H]2OCCO[C@H]2c2ccccc2)CC1 (relative stereo) . Could you help?
Output: 6.72

Task: Do the same for COc1ccccc1OCCNCC1OCCOC1(c1ccccc1)c1ccccc1 (stereo unspecified) please
Output: 8.13
